tested on: K4 kissing-loop RNA reporter; assay: apparent KD of K4 kissing-loop reporter; higher = weaker reporter binding; conditions: Eterna round: R107; input ligand: FMN 200 uM
reported_property: apparent KD of K4 kissing-loop reporter (nM)
Reply with just the number (in nM).

Field: example entries. Status: answers known.
{"columns": ["sequence_content", "measured_number"],
 "data": [
  ["UAGUCCUAGUGAUGGUCAUCACGUGGUGGGCGAGGACCGGUACGGCCGCCACUCGACUUUGCAGUGAUGUUGCAAACCGGACAAU [Exclusion - Tryptophan A (Freestyle 19)]", 333],
  ["AAGGGCUAGGCGGCCGCCACUGGUCGUGUACACAUACGAACCAGUGAUGUUGGUAUUGUAUGCGGCAGGACCGGGCCUAGCCGAA [Exclusion - Tryptophan B (Freestyle 26)]", 415],
  ["AAAGAUCUUCUAGAAACUAGAAGAUCAAGAGAGGAUAUCCGAAUUCGGAGAAGGCUCACUAAGUGAUGUUUGGAGCCAAUGGCAA [AK2 SS FMN A]", 1060],
  ["AUACACGUUGCGGCCGCCACUUCGAUUAGUGAUGUUAGGUGUAAGCAGGCGCUGCAUUAAUGUGAAAGGACCGGGCAGAGUAAGC [theeternabot_exclusion_KL_Trp_B_39]", 203],
  ["AACACCCGCUAUGAUACCAGUGAAGUGAUGUUUUACUCCGGGCGUAAGACAAAGGUCAGCCACCCUUGGCAGCAUAUCCGCGUAU [theeternabot_exclusion_KL_Theo_B_35]", 721]
]}

UUUUUCGCGUUUGAUACCAGCAGAGUUGUUCGUGUCUGGAGCGUGAGUGAUGUUCAUGUCUGCCCUUGGCAGCAAACGGGAGAAG [KL-XTheo-B14] has a reported apparent KD of K4 kissing-loop reporter of 137

Field apparent KD of K4 kissing-loop reporter (entry UGAUGUUUAGGUCACCCAGUGAUGUUGGAAGGAGCGUGCGAAAGCACAGGUAGGUCGCCAACCUAAAAGUGACCUGAGCAUCUAA [#SwitchBubble 8 #K4Early] ) reads 496

In plain terms, GUGCAAAGCACCGGCACGAGCAGCCUAAAGGAGGAUAUGACGAAAGUCAGAAGGCCUAGUGAUGUUAGGCCUUGCUUGAGUCGAA [Omei KL FMN A Exc B v1] has a documented apparent KD of K4 kissing-loop reporter of 131

// field: apparent KD of K4 kissing-loop reporter; key: AAACAUCACUGGGAGUGAUGUUCUCAGUGACGAGGACCGGUACGGCCGCCACUCGCGAGAGAUCUAGUCUAGUCUUGACUGCAUU [Excl Tryptophan A V13] ; value = 282

----------
test system: K4 kissing-loop RNA reporter; test: apparent KD of K4 kissing-loop reporter; higher = weaker reporter binding; details: Eterna round: R107; input ligand: FMN 200 uM;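 note: bound reporter read as fluorescence of individual clusters on recovered sequencing chips by microscopy, with normalized cluster intensities fitted with a binding model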
Label Condition met for high-side apparent KD of K4 kissing-loop reporter (at or above 300 nM) and Condition not met for low-side apparent KD of K4 kissing-loop reporter (below it).

Solved entries:
{"columns": ["sequence_content", "category_label"],
 "data": [
  ["UGUCAUUGGUCGGCCGCCACUAGACGGAUCAUAAGAUCUGUCAAUAAGAGUGAUGUUCUAAAUAAUAGGACCGGGACCGAUGACU [TrypBS 27 #SwitchBubble #StaticStem]", "Condition met"],
  ["CCGACUGCAGGAAGGAGCGGCGGUUGGAGUGAUGUUCCAGGUAGUGAUGUUACCAAGAUCCGCCAGGUAGGUCGCCUGUUGCUCA [Same State Arginie B GF 12]", "Condition not met"],
  ["AAUCAAUACAGAAGGAGCGUGACAAUUACUAUUGAAUUAGGUGCUAGUGAUGUUAGCAUUACACAGGUAGGUCGCUGUACAUUUA [JR_SSArginiB_Sub011]", "Condition not met"],
  ["CUAUGGAAACAUAGUGAUCGGGAAACCGAUACCAGUAUGGAAACAUACCCUUGGCAGCGGAAUGAUCAAACGGAGUGAUGUUCCG [Theophylline A K4 21]", "Condition met"],
  ["AAUAUACAGGGAAGGAGCGCCGUCCAGUGAUGUUGGAGUUAAAUACCAGUGAUGUUGGUUAGGCAGGUAGGUCGCCCUAAAGUAU [Exclusion Arginine B Gf 2]", "Condition not met"]
]}

Exercise: State whether the measured apparent KD of K4 kissing-loop reporter reaches 300 nM, counting equality as reaching it, for CCAUUCUUUUACGAUACCAGUUUUAUUUAGUUAUUCAUAACCCUUGCCGAGUGAUGUUCGGACCCUUGGCAGCGUUUGCGAGAGG [zaadvmullin]
Solution: Condition not met

Exercise: Check this sequence for apparent KD of K4 kissing-loop reporter at or above 300 nM: CAUAGGAAACUAUGUUUCUCUCUUACUGAAGGAGCGCGUGAAAACGCAGGUAGGUCGCAGAUUUUGAGAGUGAUGUUCUCAAUAA [Ex Arginine A K4 18]
Solution: Condition not met

Exercise: Does the reported apparent KD of K4 kissing-loop reporter for UUAAUUCCGGUGGUGUGUAGAACACAGUUACGAGGACCGGUACGGCCGCCACUCGGAUGCACUUUCAGUGAUGUUGAAAGCAUCA [Same State Tryptophan A GF 1] fall at or above the 300 nM mark?
Solution: Condition met

Exercise: Determine whether this sequence has apparent KD of K4 kissing-loop reporter no lower than 300 nM: CGUUUAUAGCAGGAUACCAGUACCCAUUAUGUACGUUUAUAGUAGAGUGAUGUUCUAAAGUACCCUUGGCAGCUUCCUGUGACCC [ExTheophylB.Aa]
Solution: Condition not met

Exercise: // inclusive: apparent KD of K4 kissing-loop reporter at least 300 nM? input: GCUAUGGUAGGAAGGAGCGCGGACGAUAUUUAUCGAGUGAUGUUCGAUUAAUUAAUUUUAACGCAGGUAGGUCGCCUACUAUAGC [Arginine B K4 28]
Solution: Condition not met

Exercise: Determine whether measured apparent KD of K4 kissing-loop reporter meets or exceeds 300 nM for GGAACUACGACGGCCGCCACUCUGUAUCCCAACGUUAAGGUCCUAACUGCAAGUGAUGUUUGUGCGAGGACCGGGUCUCCCUUGC [theeternabot_exclusion_KL_Trp_B_30]
Solution: Condition not met
